- testedOn: T1, recombinant human DLL4 (C-terminally His-tagged extracellular domain, R&D Systems) (human, UniProt Q9NR61 25-522, biotinylated in the competition ELISA)
- T1 construct: also called rhDLL4; hDLL4
- procedureText: SPR (Biacore), recombinant human DLL4
Rule: kon under 400000 M⁻¹ s⁻¹ gives 0.0, otherwise 1.0.

Reference set (4 entries):
DLLBII020 (VHH, not shown: small tags and cut ends) VHH: EVQLVESGGGLVQPGGSLRLSCAASGFTFGSYDMSWVRQSPGKGPEWVSSINSGGGSTYYADYVKGRFTISRDNAKNTLYLQMNSLRPEDTAVYYCAADRYIWARQGEYWGAYEYDYWGQGTLVTVSS | 0.0
DLLBII021 (VHH, not shown: small tags and cut ends) VHH: EVQLVESGGGLVQPGGSLRLSCAASGFTFGSYDMSWVRRAPGKGPEWVSSINSGGGSTYYADYVKGRFTISRDNAKNTLYLQMNSLRPEDTAVYYCAADRYIWARQGEYWGAYEYDYWGQGTLVTVSS | 1.0
DLLBII036 (VHH, not shown: small tags and cut ends) VHH: EVQLVESGGGLVQPGGSLRLSCAASGFTFGSYDMSWVRRAPGKGPEWVSSISSGGGSTYYADYVKGRFTISRDNAKNTLYLQMNSLRPEDTAVYYCAADRYIWARQGEYWGAYEYDYWGQGTLVTVSS | 1.0
DLLBII017 (VHH, not shown: small tags and cut ends) VHH: EVQLVESGGGLVQPGGSLRLSCAASGRTFSSYAMAWYRQAPGKEREYVAAIRWSGGTAYYADSVQGRFTISRDNAKNTVYLQMNSLRPEDTAVYYCANRAPDTRLAPYEYDHWGQGTLVTVSS | 0.0

Request: Has DLLBII019 (VHH, not shown: small tags and cut ends) VHH: EVQLVESGGGLVQPGGSLRLSCAASGFTFGSYDMSWVRRSPGKGPEWVSSINSGGGSTYYADYVKGRFTISRDNAKNTLYLQMNSLRPEDTAVYYCAADRYIWARQGEYWGAYEYDYWGQGTLVTVSS a recorded kon greater than or equal to 400000 M⁻¹ s⁻¹?
Response: 1.0

Request: Has DLLBII039 (VHH, not shown: small tags and cut ends) VHH: EVQLVESGGGLVQPGGSLRLSCAASGFTIGSYDMSWVRRAPGKGPEWVSSISSGGGSTYYADYVKGRFTISRDNAKNTLYLQMNSLRPEDTAVYYCAADRYIWARQGEYWGAYEYDYWGQGTLVTVSS a recorded kon greater than or equal to 400000 M⁻¹ s⁻¹?
Response: 1.0

Request: Has DLLBII022 (VHH, not shown: small tags and cut ends) VHH: EVQLVESGGGLVQPGGSLRLSCAASGFTFGSYDMSWVRQAPGKGPEWVSSINSGGGSTYYADYVKGRFTISRDNAKNTLYLQMNSLRPEDTAVYYCAADRYIWARQGEYWGAYEYDYWGQGTLVTVSS a recorded kon greater than or equal to 400000 M⁻¹ s⁻¹?
Response: 1.0

Request: Has DLLBII136C07 (VHH, not shown: small tags and cut ends) VHH: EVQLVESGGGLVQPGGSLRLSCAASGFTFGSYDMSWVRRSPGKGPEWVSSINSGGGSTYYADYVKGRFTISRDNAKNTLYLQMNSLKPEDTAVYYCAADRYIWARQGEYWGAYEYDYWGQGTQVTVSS a recorded kon greater than or equal to 400000 M⁻¹ s⁻¹?
Response: 1.0

Request: Has DLLBII018 (VHH, not shown: small tags and cut ends) VHH: EVQLVESGGGLVQPGGSLRLSCAASGRTFSSYAMAWYRQAPGKEREYVAAIRWSGGTAYYADSVKGRFTISRDNAKNTVYLQMNSLRPEDTAVYYCANRAPDTRLAPYEYDHWGQGTLVTVSS a recorded kon greater than or equal to 400000 M⁻¹ s⁻¹?
Response: 1.0

Request: Has DLLBII129B05 (VHH, not shown: small tags and cut ends) VHH: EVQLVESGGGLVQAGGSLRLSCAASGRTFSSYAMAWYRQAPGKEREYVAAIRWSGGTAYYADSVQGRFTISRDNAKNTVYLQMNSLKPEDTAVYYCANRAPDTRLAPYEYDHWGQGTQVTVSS a recorded kon greater than or equal to 400000 M⁻¹ s⁻¹?
Response: 0.0
